IC50 listing for selected binders.
Molecular target: T1, human myostatin (mature, recombinant; R&D Systems) (human, UniProt O14793 267-375)
T1 construct: biotinylated in the mRNA display selection; also called GDF-8; mature myostatin
T1 sequence: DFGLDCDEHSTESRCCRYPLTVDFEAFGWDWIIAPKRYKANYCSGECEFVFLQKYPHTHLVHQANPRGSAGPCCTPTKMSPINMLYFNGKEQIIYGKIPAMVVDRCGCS
Experiment: competitive HTRF (1889E01/myostatin/ActRIIb-Fc sandwich)
Answer with a number only, understood to be in pM.

// below: answered binders
binder="ATI-1277 [N-ethylmaleimide] (designed binder, N-ethylmaleimide on the Cys of the EGSGC tail, cysteine mutant of 2525_D05) MGVSDVPRDLEVVAATPTSLLISWSLPYAGHLNYYRITYGETGGNSPVQEFTVPGRGVTATISGLKPGVDYTITVYAVTLTKSQLIHYMPISINYRTEGSGCHHHHHH" value_type=IC50 endpoint_value=380
binder="ATI-1377 [40K 2-branch PEG] (designed binder, 40K 2-branch PEG on the Cys of the EGSGC tail) MGVSDVPRDLEVVAATPTSLLISWDAPKGLARYYRITYGETGGNSPVQEFTVVGRGNTATISGLKPGVDYTITVYAVTIFRDGPVTWDPISINYRTEGSGCHHHHHH" value_type=IC50 endpoint_value=150
binder="ATI-1375 [40K 2-branch PEG] (designed binder, 40K 2-branch PEG on the Cys of the EGSGC tail, cysteine mutant of 3115_D04) MGVSDVPRDLEVVAATPTSLLISWDAPRGLARYYRITYGETGGNSPVQEFTVFGRGTTATISGLKPGVDYTITVYAVTIDRDGTRSFDPISINYRTEGSGCHHHHHH" value_type=IC50 endpoint_value=760

Problem: # query: IC50 of entry 3115_D04 (designed binder) MGVSDVPRDLEVVAATPTSLLISWDAPRGLARYYRITYGETGGNSPVQEFTVFGRGTTATISGLKPGVDYTITVYAVTIDRDGTRSFDPISINYRTEIDKPSQHHHHHH
Solution: 200

Problem: # query: IC50 of entry 3008_A03 (designed binder) MGVSDVPRDLEVVAATPTSLLISWSLPHHGFGHYYRITYGETGGNSPVQEFTVPGRGVTATISGLKPGVDYTITVYAVTVTATGIIIYKPISINYRTEIDKPSQHHHHHH
Solution: 220

Problem: # query: IC50 of entry 3008_F01 (designed binder) MGVSDVPRDLEVVAATPTSLLISWSLPRQGLANYYRITYGETGGNSPVQEFTVPGRGVTATISGLKPGVDYTITVYAVTVTAAGVIIYKPISINYRTEIDKPSQHHHHHH
Solution: 210

Problem: # query: IC50 of entry 3008_G01 (designed binder) MGVSDVPRDLEVVAATPTSLLISWSLPGPGHFHYYRITYGETGGNSPVQEFTVPGRGVTATISGLKPGVDYTITVYAVTVTANQPIIYKPISINYRTEIDKPSQHHHHHH
Solution: 110

Problem: # query: IC50 of entry 3116_H06 (designed binder) MGVSDVPRDLEVVAATPTSLLISWDAPAGLARYYRITYGETGGNSPVQEFTVVGRGNTATISGLKPGVDYTITVYAVTIFRDGVVNYGPISINYRTEIDKPSQHHHHHH
Solution: 130

Problem: # query: IC50 of entry ATI-1275 [N-ethylmaleimide] (designed binder, N-ethylmaleimide on the Cys of the EGSGC tail, cysteine mutant of 2524_D09) MGVSDVPRDLEVVAATPTSLLISWYLPYPAHMNYYRITYGETGGNSPVQEFTVPGRGLTATISGLKPGVDYTITVYAVTLTKSQILHHRPISINYRTEGSGCHHHHHH
Solution: 190

Problem: # query: IC50 of entry 3008_B08 (designed binder) MGVSDVPRDLEVVAATPTSLLISWSLPHAGDAHYYRITYGETGGNSPVQEFTVPGRGVTATISGLKPGVDYTITVYAVTVTRAGFYRYKPISINYRTEIDKPSQHHHHHH
Solution: 370

Sourced from patent US20170088602A1
